# target: Ba/F3 Pro B-cell line expressing TEL-human MERTK fusion domain (Homo sapiens)
# Sequence (Q12866 587-858 limits assumed): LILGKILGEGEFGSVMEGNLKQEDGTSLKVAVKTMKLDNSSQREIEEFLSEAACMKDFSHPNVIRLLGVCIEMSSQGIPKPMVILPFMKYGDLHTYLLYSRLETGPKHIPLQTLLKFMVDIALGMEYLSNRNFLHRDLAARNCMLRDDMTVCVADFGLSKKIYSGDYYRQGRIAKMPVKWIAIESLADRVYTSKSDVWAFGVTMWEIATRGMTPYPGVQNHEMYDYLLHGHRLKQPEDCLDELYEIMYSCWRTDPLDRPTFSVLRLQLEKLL
# Type: cell-based
# studyConditions: cell survival, 48 h, CellTiter-Glo; read-out: TEL-MERTK Ba/F3 IC50
pIC50: −log10 of the molar value.
Examples of molecules with documented pIC50 follow.
reportedProperty: pIC50

O=C(Nc1ccc(Oc2ccnc3cnc(N4CCNCC4)cc23)cc1)c1cccn(-c2ccc(F)cc2)c1=O :: 7.25
CC(C)n1cc(C(=O)Nc2ccc(Oc3ccnc4cnc(C(=O)NC5CC6CCC(C5)N6C)cc34)cn2)c(=O)n(-c2ccc(F)cc2)c1=O (stereo not drawn) :: 7.31
CC(C)(C)OC(=O)N1CCC(c2cc3c(Oc4ccc(NC(=O)c5cccn(-c6ccc(F)cc6)c5=O)nc4)ccnc3cn2)C1 (stereo not drawn) :: 7.15
CN1CCC(C(=O)Nc2cc3c(Oc4ccc(NC(=O)c5cccn(-c6ccc(F)cc6)c5=O)nc4)ccnc3cn2)C1 (stereo not drawn) :: 8.52
Cc1nc(NC(=O)c2cccn(-c3ccc(F)cc3)c2=O)ccc1Oc1ccnc2cnc(C(=O)NC3CCN(C)CC3)cc12 :: 7.26
O=C(Nc1ccc(Oc2ccnc3cnc(C4=CCN(C5COC5)CC4)cc23)cn1)c1cccn(-c2ccc(F)cc2)c1=O :: 7.85

---

# target: Ba/F3 Pro B-cell line expressing TEL-human Tyro3 fusion domain (Homo sapiens, UniProt Q06418)
# Sequence (Q06418 518-790 limits assumed): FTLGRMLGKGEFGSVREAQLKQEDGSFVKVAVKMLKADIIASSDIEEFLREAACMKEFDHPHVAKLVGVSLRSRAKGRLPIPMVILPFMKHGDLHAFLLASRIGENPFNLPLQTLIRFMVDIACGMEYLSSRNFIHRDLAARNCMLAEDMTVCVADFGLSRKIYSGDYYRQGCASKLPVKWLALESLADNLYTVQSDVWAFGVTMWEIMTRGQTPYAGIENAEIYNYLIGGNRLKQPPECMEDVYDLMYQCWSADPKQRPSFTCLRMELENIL
# studyConditions: cell survival, 48 h, CellTiter-Glo
Examples of compounds with documented IC50 follow.
reportedProperty: IC50

CC(C)n1cc(C(=O)Nc2ccc(Oc3ccnc4cnc(N5CCNCC5)cc34)cc2)c(=O)n(-c2ccccn2)c1=O :: 1320 nM
CN1CCC(c2cc3c(Oc4ccc(NC(=O)c5cccn(-c6ccc(F)cc6)c5=O)cc4)ccnc3cn2)CC1 :: 186 nM
CN1CCC(Oc2cc3c(Oc4ccc(NC(=O)c5cccn(-c6ccc(F)cc6)c5=O)nc4)ccnc3cn2)CC1 :: 37 nM

---

# target: Ba/F3 Pro B-cell line expressing TEL-human MERTK fusion domain (Homo sapiens)
# Assay type: cell-based
# studyConditions: cell survival, 48 h, CellTiter-Glo; read-out: TEL-MERTK Ba/F3 IC50
reportedProperty: log10 of IC50 (log10 of the value in nM)

CC(C)n1cc(C(=O)Nc2ccc(Oc3ccnc4cnc(C5CCN(C)CC5)cc34)cn2)c(=O)n(-c2ccc(F)cc2)c1=O :: 1.18
CN1CCN(c2cc3c(Oc4ccc(NC(=O)c5cccn(-c6ccc(F)cc6)c5=O)cc4)ccnc3cn2)CC1 :: 1.15
CC(C)n1cc(C(=O)Nc2ccc(Oc3ccnc4cnc(C(=O)NC5CCN(C)CC5)cc34)cc2)c(=O)n(-c2ccc(F)cc2)c1=O :: 1.48
CN1CCC(c2cc3c(Oc4ccc(NC(=O)c5cccn(-c6ccc(F)cc6)c5=O)nc4)ccnc3cn2)CC1 :: 1.15
O=C(Nc1ccc(Oc2ccnc3cnc(C4CCNC4)cc23)cn1)c1cccn(-c2ccc(F)cc2)c1=O (stereo not shown) :: 2.34
O=C(Nc1ccc(Oc2ccnc3cnc(N4CCN(C5COC5)CC4)cc23)cn1)c1cccn(-c2ccc(F)cc2)c1=O :: 1.23
O=C(Nc1ccc(Oc2ccnc3cnc(N4CCN(C5COC5)CC4)cc23)cn1)c1ccnn(-c2ccc(F)cc2)c1=O :: 1.30
Cc1cc(NC(=O)c2cccn(-c3ccc(F)cc3)c2=O)ncc1Oc1ccnc2cnc(C(=O)NC3CCN(C)CC3)cc12 :: 1.73
CN1CCC(c2cc3c(Oc4ccc(NC(=O)c5cccn(-c6ccc(F)cc6)c5=O)cc4)ccnc3cn2)CC1 :: 1.40

---

Examples of compounds with documented pIC50 follow.
# target: Ba/F3 Pro B-cell line expressing BCR-human AXL kinase domain fusion protein (Homo sapiens, UniProt P30530)
# Construct: P11274 (Breakpoint cluster region protein)
# Sequence (P30530 536-807 limits assumed): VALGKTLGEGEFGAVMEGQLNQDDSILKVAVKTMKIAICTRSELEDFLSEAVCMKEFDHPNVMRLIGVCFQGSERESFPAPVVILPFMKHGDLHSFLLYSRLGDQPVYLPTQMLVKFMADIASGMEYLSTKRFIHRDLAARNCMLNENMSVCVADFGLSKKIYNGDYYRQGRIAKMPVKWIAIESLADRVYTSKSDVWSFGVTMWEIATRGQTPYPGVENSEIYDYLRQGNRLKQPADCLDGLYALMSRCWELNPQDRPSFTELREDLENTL
# protocolSummary: Assay 5 Ba/F3 cell survival assay, BCR-Axl
# studyConditions: read-out: BCR-Axl Ba/F3 IC50, 48 h, CellTiter-Glo
pIC50: −log10 of the molar value.
reportedProperty: pIC50

O=C(Nc1ccc(Oc2ccnc3cnc(N4CCN(C5COC5)CC4)cc23)cn1)c1cccn(-c2ccc(F)cc2)c1=O [Example 10.2] :: 7.85
CC(C)n1cc(C(=O)Nc2ccc(Oc3ccnc4cnc(N5CCN(C6COC6)CC5)cc34)cn2)c(=O)n(-c2ccc(F)cc2)c1=O [Example 20.1] :: 7.82
CN1CCC(NC(=O)c2cc3c(Oc4ccc(NC(=O)c5cccn(-c6ccc(F)cc6)c5=O)cc4)ccnc3cn2)CC1 [Example 8.1] :: 8.15
CC(C)n1cc(C(=O)Nc2ccc(Oc3ccnc4cnc(N5CCNCC5)cc34)cc2)c(=O)c(-c2ccc(F)cc2)c1 [Example 13] :: 7.89

---

# target: human AXL cytoplasmic domain (Homo sapiens)
# Construct: human AXL cytoplasmic domain (Thermo Fisher A31515); purchased Thermo Fisher A31515
# Sequence (P30530 473-894 limits assumed): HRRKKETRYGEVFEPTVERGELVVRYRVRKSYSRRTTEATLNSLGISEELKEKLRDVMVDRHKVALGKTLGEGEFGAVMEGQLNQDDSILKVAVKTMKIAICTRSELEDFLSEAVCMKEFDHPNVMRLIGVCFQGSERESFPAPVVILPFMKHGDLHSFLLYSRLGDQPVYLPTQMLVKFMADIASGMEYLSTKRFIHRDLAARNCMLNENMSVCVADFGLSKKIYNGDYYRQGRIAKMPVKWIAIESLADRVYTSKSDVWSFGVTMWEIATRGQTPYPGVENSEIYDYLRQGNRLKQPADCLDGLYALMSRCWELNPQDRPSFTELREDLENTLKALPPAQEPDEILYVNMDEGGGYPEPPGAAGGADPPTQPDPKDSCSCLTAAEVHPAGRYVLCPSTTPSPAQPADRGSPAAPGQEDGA
# protocolSummary: Assay 1b AXL HTRF KinEASE-TK assay
# Assay type: biochemical
reportedProperty: IC50 (µM)

Cc1cc(NC(=O)c2cccn(-c3ccccc3)c2=O)ccc1Oc1ccnc2cnc(C(=O)NC3CCN(C)CC3)cc12 :: 0.296
Cc1nc(NC(=O)c2cccn(-c3ccc(F)cc3)c2=O)ccc1Oc1ccnc2cnc(C(=O)NC3CCN(C)CC3)cc12 :: 0.36
O=C(Nc1ccc(Oc2ccnc3cnc(N4CCNCC4)cc23)cc1)c1cccn(-c2ccccc2)c1=O :: 0.054
CC(C)n1cc(C(=O)Nc2ccc(Oc3ccnc4cnc(N5CCN(C6COC6)CC5)cc34)cn2)c(=O)c(-c2ccc(F)cc2)c1 :: 0.007
CC(C)n1cc(C(=O)Nc2ccc(Oc3ccnc4cnc(C(=O)NCCN(C)C)cc34)cn2)c(=O)n(-c2ccc(F)cc2)c1=O :: 0.006
CC(C)(C)OC(=O)N1CCC(c2cc3c(Oc4ccc(NC(=O)c5cccn(-c6ccc(F)cc6)c5=O)nc4)ccnc3cn2)CC1 :: 0.282
CN1CCC(NC(=O)c2cc3c(Nc4ccc(NC(=O)c5cccn(-c6ccccc6)c5=O)cc4)ccnc3cn2)CC1 :: 0.2

---

# target: human AXL cytoplasmic domain (Homo sapiens)
# Construct: human AXL cytoplasmic domain (Thermo Fisher A31515); purchased Thermo Fisher A31515
# protocolSummary: Assay 1b AXL HTRF KinEASE-TK assay
# Type: biochemical
reportedProperty: IC50 (nM)

CC(C)n1cc(C(=O)Nc2ccc(Oc3ccnc4cnc(C(=O)NC5CCN(C)CC5)cc34)cn2)c(=O)n(-c2ccc(F)cc2)c1=O [Example 27.5] :: 9
O=C(Nc1ccc(Oc2ccnc3cnc(N4CCN(C5COC5)CC4)cc23)cn1)c1cccn(-c2ccc(F)cc2)c1=O [Example 10.2] :: 20
O=C(Nc1ccc(Oc2ccnc3cnc(N4CCNCC4)cc23)cn1)c1cccn(-c2ccc(F)cc2)c1=O [Example 10] :: 29
O=C(Nc1ccc(Oc2ccnc3cnc(N4CCNCC4)cc23)c(F)c1)c1cccn(-c2ccccc2)c1=O [Example 31] :: 12
